Attribution: BindingDB's records for doi:10.1021/acs.jmedchem.0c00182

assay: Inhibition of eIF4A1 in human HAP1 cells assessed as reduction in cell proliferation incubated for 72 hrs by CellTiter-Glo reagent based assay
Endpoint label: pIC50
Scale: pIC50 equals -log10([C]), with [C] in mol/L.

Data point: COc1cc2c(c(OC)n1)[C@]1(O)[C@H](O)[C@H](CN(C)C)[C@@H](c3ccccc3)[C@]1(c1ccc(C#N)cc1)O2 ; pIC50 = 8.20
